Assay Explanation: Volume of distribution at steady state in male ICR mouse at 5 mg/kg, iv measured upto 24 hrs by LC-MS/MS analysis
Format: ADME, organism-based
Settings: in vivo, read-out: Vdss
Readout Label: Vd

COc1cc2c(NC3CCN(CCCC(=O)NCCCCCCCCNc4cccc5c4C(=O)N(C4CCC(=O)NC4=O)C5=O)CC3)nc(C3CCCCC3)nc2cc1OCCCN1CCCC1 (stereo unspecified) : 2.61 L/kg

----------
Assay Explanation: Half life in male ICR mouse at 5 mg/kg, iv measured upto 24 hrs by LC-MS/MS analysis
Assay type: ADME, organism-based
Settings: in vivo
Readout Label: half-life (h)

COc1cc2c(NC3CCN(CCCC(=O)NCCCCCCCCNc4cccc5c4C(=O)N(C4CCC(=O)NC4=O)C5=O)CC3)nc(C3CCCCC3)nc2cc1OCCCN1CCCC1 (stereo unspecified) : 5.3

----------
Assay Explanation: Half life in male ICR mouse at 20 mg/kg, ip measured upto 24 hrs by LC-MS/MS analysis
Type: ADME, organism-based
Settings: in vivo
Readout Label: half-life (h)

COc1cc2c(NC3CCN(CCCC(=O)NCCCCCCCCNc4cccc5c4C(=O)N(C4CCC(=O)NC4=O)C5=O)CC3)nc(C3CCCCC3)nc2cc1OCCCN1CCCC1 (stereo unspecified) : 4.2

----------
Assay Explanation: AUC (0 to t) in male ICR mouse at 5 mg/kg, iv measured upto 24 hrs by LC-MS/MS analysis
Format: ADME, organism-based
Settings: in vivo
Readout Label: AUC(0-t) at 24 h (ng·h/mL)

COc1cc2c(NC3CCN(CCCC(=O)NCCCCCCCCNc4cccc5c4C(=O)N(C4CCC(=O)NC4=O)C5=O)CC3)nc(C3CCCCC3)nc2cc1OCCCN1CCCC1 (stereo unspecified) : 3780

----------
Assay Explanation: Clearance in male ICR mouse at 5 mg/kg, iv measured upto 24 hrs by LC-MS/MS analysis
Type: ADME, organism-based
Settings: in vivo
Readout Label: clearance (mL/min/kg)

COc1cc2c(NC3CCN(CCCC(=O)NCCCCCCCCNc4cccc5c4C(=O)N(C4CCC(=O)NC4=O)C5=O)CC3)nc(C3CCCCC3)nc2cc1OCCCN1CCCC1 (stereo unspecified) : 22.4

----------
Assay Explanation: AUC (0 to t) in male ICR mouse at 20 mg/kg, ip measured upto 24 hrs by LC-MS/MS analysis
Assay type: ADME, organism-based
Settings: in vivo
Readout Label: AUC(0-t) at 24 h (ng·h/mL)

COc1cc2c(NC3CCN(CCCC(=O)NCCCCCCCCNc4cccc5c4C(=O)N(C4CCC(=O)NC4=O)C5=O)CC3)nc(C3CCCCC3)nc2cc1OCCCN1CCCC1 (stereo unspecified) : 6150

----------
Assay Explanation: Cmax in male ICR mouse at 20 mg/kg, ip measured upto 24 hrs by LC-MS/MS analysis
Assay type: ADME, organism-based
Settings: in vivo
Readout Label: Cmax

COc1cc2c(NC3CCN(CCCC(=O)NCCCCCCCCNc4cccc5c4C(=O)N(C4CCC(=O)NC4=O)C5=O)CC3)nc(C3CCCCC3)nc2cc1OCCCN1CCCC1 (stereo unspecified) : 2670 ng/mL

----------
System Name: Protein cereblon/Histone-lysine N-methyltransferase EHMT2 (Homo sapiens, UniProt Q96KQ7+Q96SW2)
Sequence (Q96KQ7 2-1210 limits assumed): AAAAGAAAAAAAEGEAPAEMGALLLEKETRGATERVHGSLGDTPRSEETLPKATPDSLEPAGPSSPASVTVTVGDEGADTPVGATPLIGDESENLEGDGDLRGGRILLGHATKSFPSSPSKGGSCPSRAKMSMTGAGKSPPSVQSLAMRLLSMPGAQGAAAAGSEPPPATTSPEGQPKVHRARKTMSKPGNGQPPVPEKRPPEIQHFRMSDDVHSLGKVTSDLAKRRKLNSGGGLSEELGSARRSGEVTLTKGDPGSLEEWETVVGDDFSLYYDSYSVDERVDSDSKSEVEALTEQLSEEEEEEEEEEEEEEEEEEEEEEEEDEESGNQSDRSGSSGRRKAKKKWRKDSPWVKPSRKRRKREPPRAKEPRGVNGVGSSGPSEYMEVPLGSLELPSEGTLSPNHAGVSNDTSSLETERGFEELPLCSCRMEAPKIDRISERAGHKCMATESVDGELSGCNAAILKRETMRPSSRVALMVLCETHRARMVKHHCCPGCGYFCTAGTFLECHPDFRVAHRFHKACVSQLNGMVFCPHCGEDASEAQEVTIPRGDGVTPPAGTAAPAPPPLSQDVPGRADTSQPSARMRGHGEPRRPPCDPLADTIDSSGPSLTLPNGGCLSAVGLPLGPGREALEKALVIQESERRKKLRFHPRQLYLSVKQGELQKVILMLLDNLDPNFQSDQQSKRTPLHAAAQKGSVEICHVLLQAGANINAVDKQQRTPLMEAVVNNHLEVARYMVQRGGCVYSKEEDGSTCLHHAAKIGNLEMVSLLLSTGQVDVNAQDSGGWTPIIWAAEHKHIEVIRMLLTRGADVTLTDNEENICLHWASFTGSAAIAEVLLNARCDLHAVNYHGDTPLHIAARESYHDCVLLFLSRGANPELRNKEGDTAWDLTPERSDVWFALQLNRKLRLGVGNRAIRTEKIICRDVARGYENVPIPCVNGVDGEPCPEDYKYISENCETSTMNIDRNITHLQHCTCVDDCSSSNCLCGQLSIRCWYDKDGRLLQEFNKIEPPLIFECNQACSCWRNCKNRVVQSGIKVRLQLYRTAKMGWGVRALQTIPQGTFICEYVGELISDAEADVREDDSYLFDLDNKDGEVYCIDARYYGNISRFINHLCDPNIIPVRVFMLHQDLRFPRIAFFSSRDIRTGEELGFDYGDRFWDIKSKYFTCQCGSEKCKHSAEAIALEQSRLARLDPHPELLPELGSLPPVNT
Sequence (Q96SW2 whole entry partner): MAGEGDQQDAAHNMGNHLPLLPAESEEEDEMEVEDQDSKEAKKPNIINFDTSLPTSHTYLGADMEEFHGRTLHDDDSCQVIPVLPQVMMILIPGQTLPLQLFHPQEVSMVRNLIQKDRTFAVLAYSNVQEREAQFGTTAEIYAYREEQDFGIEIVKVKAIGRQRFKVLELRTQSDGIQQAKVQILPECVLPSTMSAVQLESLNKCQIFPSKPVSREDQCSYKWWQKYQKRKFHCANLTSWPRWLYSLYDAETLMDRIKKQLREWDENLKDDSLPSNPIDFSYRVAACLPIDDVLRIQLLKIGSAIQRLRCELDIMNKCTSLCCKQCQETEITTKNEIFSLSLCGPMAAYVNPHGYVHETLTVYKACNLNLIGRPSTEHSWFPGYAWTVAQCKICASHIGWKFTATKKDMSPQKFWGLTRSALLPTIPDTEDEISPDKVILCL
Assay Explanation: PROTAC activity at CRBN/G9a in human PANC-1 cells assessed as induction of G9a degradation at 0.1 uM measured after 24 hrs by Western blot analysis
Assay type: cell-based
Active and inactive are the calls of the source. No cut-off for these calls is given here.
Outcome codes: active, inactive

COc1cc2c(NC3CCN(CCCC(=O)NCCCCCCCNc4cccc5c4C(=O)N(C4CCC(=O)NC4=O)C5=O)CC3)nc(C3CCCCC3)nc2cc1OCCCN1CCCC1 (centres undefined) : inactive
COc1cc2c(NC3CCN(CCCC(=O)NCCCCCCCCCCNc4cccc5c4C(=O)N(C4CCC(=O)NC4=O)C5=O)CC3)nc(C3CCCCC3)nc2cc1OCCCN1CCCC1 (centres undefined) : inactive
COc1cc2c(NC3CCN(CCCC(=O)NCCCCCCCCNc4cccc5c4C(=O)N(C4CCC(=O)NC4=O)C5=O)CC3)nc(C3CCCCC3)nc2cc1OCCCN1CCCC1 (centres undefined) : active
COc1cc2c(NC3CCN(CCCC(=O)NCCCCCCCCCNc4cccc5c4C(=O)N(C4CCC(=O)NC4=O)C5=O)CC3)nc(C3CCCCC3)nc2cc1OCCCN1CCCC1 (centres undefined) : inactive
